Test system: grafted B16 F0 murine melanoma tumour
Assay: Biodistribution of the ^125I-labelled molecules in the melanoma-bearing mouse (autoradiography of whole-body sections)
Conditions: Ic; 6 H
Counter-ions that a name gives are not always drawn.
Criterion: Biodistribution, Mean, Ic strictly under 30. Met: condition met. Not met: condition not met.

>>> assigned_class("CCN(CC)CCNC(=O)c1cnc2cc(I)ccc2n1.Cl.Cl")
"condition met"
>>> assigned_class("CCCN(CCC)CCCCNC(=O)c1ccc2cc(I)ccc2n1 [compound 49, dihydrochloride]")
"condition met"
>>> assigned_class("CCN(CC)CCNC(=O)c1c[nH]c2ccc(I)cc2c1=O [compound 35, dihydrochloride]")
"condition not met"
>>> assigned_class("CCN(CC)CCNC(=O)c1cccc2cc3cc(I)ccc3nc12 [compound 111, dihydrochloride]")
"condition met"
>>> assigned_class("CCN(CC)CCNC(=O)c1ccc2cncc(I)c2n1.Cl.Cl")
"condition not met"
